Attribution: ChEMBL document CHEMBL1145498

Entries with their measured ΔTm, system Casein kinase I isoform gamma-3 (Homo sapiens):

{"STRUCTURE SMILES STRING": "Oc1ccc(-c2nc(-c3ccc(F)cc3)c(-c3ccncc3)[nH]2)cc1", "ΔTm (°C)": 1.1}
{"STRUCTURE SMILES STRING": "Nc1nc(Nc2ccc(S(N)(=O)=O)cc2)nn1C(=S)Nc1c(F)cccc1F", "ΔTm (°C)": 5.3}
{"STRUCTURE SMILES STRING": "O=c1c2ccccc2[nH]c(=S)n1CCN1CCC(=C(c2ccc(F)cc2)c2ccc(F)cc2)CC1", "ΔTm (°C)": -1.3}
{"STRUCTURE SMILES STRING": "COc1cc2ncnc(Nc3ccc(F)c(Cl)c3)c2cc1OCCCN1CCOCC1", "ΔTm (°C)": 0.3}
{"STRUCTURE SMILES STRING": "CN(c1cccnc1)c1cc2c(Nc3ccc(F)c(Cl)c3)c(C#N)cnc2cn1", "ΔTm (°C)": 3.7}
{"STRUCTURE SMILES STRING": "NCCNc1ncc(C(N)=O)c(Nc2cccc(C(F)(F)F)c2)n1", "ΔTm (°C)": 5.9}
{"STRUCTURE SMILES STRING": "Cc1nc(N)sc1-c1ccnc(Nc2cccc([N+](=O)[O-])c2)n1", "ΔTm (°C)": 1.3}
{"STRUCTURE SMILES STRING": "OC[C@H]1O[C@@H](n2cnc3cc(Cl)c(Cl)cc32)[C@H](O)[C@@H]1O", "ΔTm (°C)": 1}
{"STRUCTURE SMILES STRING": "O=C(O)/C=C/c1cc(CO)ccc1CO", "ΔTm (°C)": 0.4}
{"STRUCTURE SMILES STRING": "C[C@@H](N)[C@H]1CC[C@H](C(=O)Nc2ccncc2)CC1", "ΔTm (°C)": 0.4}
